From: PubChem BioAssay (NCI)

# Test system: UACC-257 melanoma
# method: NCI tumour cell line growth inhibition, 48 h; in the data active means GI50 below about 0.43 µM; inactive means the rest
Possible outcomes: Y (active), N (inactive)

entry.smiles | label.value
CCCCCCCCCCCCCC(=O)O[C@H]1CC[C@H](NC(=O)[C@H](OC)[C@H](O)[C@@H](O)[C@H](O)/C=C/C(C)C)C(=O)N(C)C1 | Y
O=c1[nH]c2ccccc2cc1-c1nnc(Cc2ccccc2)o1 | N
COc1cc([C@@H]2c3cc4c(cc3[C@H](SC(=N)N)[C@H]3COC(=O)[C@H]23)OCO4)cc(OC)c1OC | N
N#CN1CC[C@H](C(=O)Nc2ncc(-c3ccccc3)s2)C1 | N

====

TGI for assorted compounds
# System: A549 NSCLC
# method: NCI tumour cell line growth inhibition, 48 h

compound | TGI
CCN1C(=O)N(CC)C2C1NC(=S)N2/N=C/C=C/c1ccccc1 (stereo not drawn) | > 100 µM
CC(=O)Oc1cc2c(cc1OCC(F)(F)F)[C@H]1CC[C@]3(C)[C@@H](OC(C)=O)CC[C@H]3[C@@H]1CC2=O | 77.7 µM
CC(=O)O[C@H]1CC[C@@H](OC(C)=O)[C@H]2[C@H](O)[C@H](O)[C@@H]1n1c(=O)n(-c3ccccc3)c(=O)n12 | > 100 µM

====

# System: HCC-2998 colon
# method: NCI tumour cell line growth inhibition, 48 h
TGI for assorted compounds
measured.quantity: TGI (µM)

compound | value.prefix | reported
COC(=O)C(Cc1ccccc1)NC(=O)C(CNC(=O)OCc1ccccc1)C(=O)OCc1ccccc1 (stereo not drawn) | > | 100
CC1(C)N=C(/C(Cl)=[N+](/[O-])C(=O)c2ccc(Cl)cc2)C(C)(C)N1O | = | 63
O=[N+]([O-])/C=C/c1cc(Cl)c(/C=C/[N+](=O)[O-])cc1Cl | = | 3.99

====

# Test system: SK-OV-3 ovarian
# method: NCI tumour cell line growth inhibition, 48 h
TGI for assorted molecules
measured.quantity: TGI

molecule | reported
CC(=O)CCC1(C(=O)OCC(C)C)CCCC1=O (centres undefined) | > 100 µM
O=C(OCCN=c1c2ccccc2ccc2ccccc12)c1cc([N+](=O)[O-])cc([N+](=O)[O-])c1 | > 100 µM
O=c1c2ccccc2nc(-c2cccc(Cl)c2)n1NC1OC(CO)C(O)C(O)C1O (centres undefined) | > 100 µM
CC(C)(C)C1=NO[C@H]2[C@@H](NC(=O)c3ccccc3)CC[C@@H]12 | > 100 µM
CC(C)(C)O/N=C/c1cc(NC(=S)c2ccccc2)ccc1Cl | > 100 µM
CC(C)N(C(=O)C12C3C4C1C1C4(C#N)C3C12C(=O)O)C(C)C (centres undefined) | > 100 µM
CCOC(=O)[C@@H](C)C[C@H](Cc1ccccc1)NC(=O)c1csc([C@@H](C[C@H](C(C)C)N(C)C(=O)CNC(=O)[C@H]2CCCCN2C)OC(C)=O)n1 | > 14.3 µM
O=c1c2ccc(Cl)cc2oc2c(CSc3ccccc3)cccc12 | > 100 µM
NC1=NC(c2ccccc2Cl)c2c(n[nH]c2N)N1 (centres undefined) | > 100 µM
CC1(C)N=C(/C(Cl)=[N+](/[O-])C(=O)c2ccc(Cl)cc2)C(C)(C)N1O | > 100 µM
CCN1C(=O)N(CC)C2C1NC(=S)N2/N=C/C=C/c1ccccc1 (centres undefined) | > 100 µM
N#Cc1c(-c2ccccc2)c(-c2ccccc2)cc2c(=O)c3ccc(Cl)cc3[nH]c12 | > 100 µM
Cn1cc(-c2ccc3ncc(-c4ccc(CC(=O)Nc5cc(C(C)(C)C)nn5C)cc4)cc3c2)cn1 | > 20 µM
CN(C)CCNC(=O)Nc1ccc(N(C)c2ccnc(Nc3ccc(CS(C)(=O)=O)cc3)n2)cc1 | > 25 µM

====

TGI for assorted compounds
# Test system: MCF7 breast
# method: NCI tumour cell line growth inhibition, 48 h

compound | TGI
COc1ccccc1N=Nc1c(O)ccc2ccccc12 | > 100 µM
CCOC(=O)N1CCNCCN(C(=O)OCC)CCNCC1 | > 100 µM
N#Cc1cc(F)cc(Oc2ccc(S(=O)(=O)C(F)F)c3c2CC(F)(F)[C@H]3O)c1 | > 100 µM
Nc1c(C(=O)Nc2ccccc2)sc2nc3c(cc12)C(=O)CCC3 | > 100 µM
COc1ccc(O[C@H](CO)C[C@@H]2COC(C)(C)O2)cc1 | > 100 µM
CCOC(=O)c1cn(C)c2c(OC)c3ccccc3c(OC)c2c1=O | 47.8 µM
CC(=O)Oc1cc2c(cc1OCC(F)(F)F)[C@H]1CC[C@]3(C)[C@@H](OC(C)=O)CC[C@H]3[C@@H]1CC2=O | > 75.6 µM
C/C(=N\NC(=S)N1CCC1)c1ccccn1 | 0.00635 µM
Cc1cc(-c2ccc(N=Nc3ccc4c(S(=O)(=O)O)cc(S(=O)(=O)O)c(N)c4c3O)c(C)c2)ccc1N=Nc1ccc2c(S(=O)(=O)O)cc(S(=O)(=O)O)c(N)c2c1O | > 100 µM
COC(=O)c1ccc(NC(N)=NCCC(C)(C)c2ccc(C(F)(F)F)cc2)nc1 | 3.87 µM
Cn1c(CO)ccc1-c1ccc(-c2ccc(CO)[se]2)[se]1 | > 40 µM
Cn1c2c(c3c(=O)[nH]ncc31)Cc1ccccc1-2 | 56.5 µM
CO[C@H]1C(=O)[C@]2(C)[C@@H](OC)C[C@H]3OC[C@@]3(OC(C)=O)[C@H]2[C@H](OC(=O)c2ccccc2)[C@]2(O)C[C@H](OC(=O)[C@H](O)[C@@H](NC(=O)OC(C)(C)C)c3ccccc3)C(C)=C1C2(C)C | 20.5 µM
BrC1(c2ccccc2)C[n+]2c(-c3ccccc3)cc(-c3ccccc3)cc2-c2ccccc21 (stereo not drawn) | 0.735 µM
Nc1c(C(=O)O)c2ccc([N+](=O)[O-])cc2c(=O)n1-c1nc2ccccc2s1 | > 100 µM
CCc1c(O)nc(Nc2nc3ccccc3[nH]2)[nH]c1=O | > 100 µM
CC(C)(NO)/C(=N\O)c1ccccc1 | > 10 µM
COC(=O)[C@]12CC[C@@H](C)[C@H](C)[C@@H]1C1=CC[C@@H]3[C@@]4(C)C(C=O)=C[C@@](C)(COS(C)(=O)=O)C4=CC[C@@]3(C)[C@]1(C)CC2 | 1.37 µM
O=c1[nH]c(=S)[nH]c(O)c1/C=C1\C=Nc2ccccc21 | 23.9 µM
Cc1ccc(S(=O)(=O)NC(=O)Nc2ccc(C(=O)O)cc2)cc1 | > 100 µM
[C-]#[O+].[Cl][Sn]([Cl])[Cl].[Cl][Sn]([Cl])[Cl].[Pt].c1cnc2c(c1)ccc1cccnc12 | 56.4 µM
Clc1[nH]nc2ccccc12 | > 100 µM
C[C@]12CCc3nc(Nc4ccc(O)cc4)sc3C1=CC[C@@H]1[C@@H]2CC[C@]2(C)/C(=N/NC(N)=S)CC[C@@H]12 | 3.01 µM
Cc1ccc(S(=O)(=O)OCCN(CCOS(=O)(=O)c2ccc(C)cc2)c2ccc(C=O)cc2)cc1 | 92.9 µM
COc1ccc(S(=O)(=O)NC(CCC(=O)NC(N)=O)C(=O)NC(N)=O)cc1 (stereo not drawn) | > 100 µM
O=C1/C(=C\c2cccc(Oc3ccccc3)c2)SC(c2ccccc2)N1c1cc(Cl)ccc1Cl (stereo not drawn) | > 100 µM
O=C(O)[C@H]1NC[C@H]2C(Br)=NO[C@@H]12 | > 100 µM
O=S(Nc1ccccc1)c1ccc(Cl)cc1 (stereo not drawn) | > 100 µM

====

# Test system: MDA-MB-231 breast
# method: NCI tumour cell line growth inhibition, 48 h

compound | TGI
CC(C)(NO)/C(=N\O)c1ccccc1 | > 10 µM
C#COc1cccc(Nc2ncnc3cc(NC(=O)[C@@H](C)Cl)ccc23)c1 | > 62.5 µM
O=C1c2cccc3c(N4CCOCC4)ccc(c23)C(=O)N1CCN1CCN(CCCCCN2CCN(CCN3C(=O)c4cccc5c(N6CCOCC6)ccc(c45)C3=O)CC2)CC1 | > 100 µM
O=C1/C(=C\c2cccc(Oc3ccccc3)c2)SC(c2ccccc2)N1c1cc(Cl)ccc1Cl (configuration not stated) | > 100 µM
Nc1c(C(=O)Nc2ccccc2)sc2nc3c(cc12)C(=O)CCC3 | > 100 µM
Cc1nc(C(=Nc2ccc(Br)cc2)Nn2cnnc2)no1 | > 100 µM
CC(C)(C)C(=O)c1c(O)c2ccccc2c2ccccc2c1=O | > 100 µM
CN(C)c1cccc2c(S(=O)(=O)NCCN)cccc12 | > 100 µM
COc1cccc2c(=O)oc(-c3ccccc3C)nc12 | > 100 µM
Nc1c(C(=O)O)c2ccc([N+](=O)[O-])cc2c(=O)n1-c1nc2ccccc2s1 | > 100 µM
CC(=O)O[C@H]1CC[C@@H](OC(C)=O)[C@H]2[C@H](O)[C@H](O)[C@@H]1n1c(=O)n(-c3ccccc3)c(=O)n12 | > 100 µM
COc1cc2c(cc1O)NC(=O)[C@@H]1C[C@@H](O)CN1C2=O | > 100 µM
